I'd be grateful if you could share measured pIC50 for these entries.
- measuredOn: Factor D (Homo sapiens (Human))
- Sequence (P00746 26-253): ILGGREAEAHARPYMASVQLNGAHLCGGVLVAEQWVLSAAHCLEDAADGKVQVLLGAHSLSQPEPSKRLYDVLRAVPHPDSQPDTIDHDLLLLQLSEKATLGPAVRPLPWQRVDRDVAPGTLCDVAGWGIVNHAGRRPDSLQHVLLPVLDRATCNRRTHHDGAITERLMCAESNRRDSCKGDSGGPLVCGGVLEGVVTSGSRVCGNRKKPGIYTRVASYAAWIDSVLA
pIC50: −log10 of the molar value.

Entry NCc1cccc(-c2ccc3[nH]cc(C(=O)Nc4ccccc4CC(=O)O)c3n2)c1 [Compound 14c] has what pIC50?
> 6.00

What about this compound? NCc1cccc(-c2cccc3cc(COc4cccc(CC(=O)O)c4)oc23)c1 [Compound 34c]
< 5.00

What do we get for CC(C)c1ccccc1-c1cc(-c2cccc(CN)c2)cc2c(COc3ccccc3CC(=O)O)coc12 [Compound 219c] ?
> 6.00

What about this compound? NCc1cccc(-c2cc(CNCC3CC3)c3occ(COc4ccccc4CC(=O)O)c3c2)c1 [Compound 209c]
> 6.00

---

Reported IC50 values, Factor D (Homo sapiens (Human)).

Item NCc1cccc(-c2ccc3c(c2)c(COc2ccccc2CC(=O)O)nn3C2CCCCO2)c1 (stereo not drawn) [Compound 80d] has what recorded IC50?
< 1 µM

Now the compound NCc1cccc(-c2cccc3cc(COc4ccccc4CCC(=O)O)ccc23)c1 [Compound 43c]
> 10 µM

Item: CC(C)n1nc(COc2ccccc2CC(=O)O)c2cc(-c3cc(CN)cc(C4CC4)c3)ccc21 [Compound 331e]
1 to 10 µM

Proceed to NCc1cccc(-c2cc(CC3CCOCC3)c3occ(COc4ccccc4CC(=O)O)c3c2)c1 [Compound 163e]
< 1 µM

Follow-up entry: NCc1cccc(-c2ccc3occ(Cc4ccccc4CC(=O)O)c3c2)c1 [Compound 73f]
1 to 10 µM

Another compound to look at: NCc1cccc(-c2cc(COc3ccccc3)c3occ(COc4ccccc4CC(=O)O)c3c2)c1 [Compound 92e]
< 1 µM

Same for CN(C)Cc1cc(-c2cccc(CN)c2)cc2c(COc3ccccc3CC(=O)O)coc12 [Compound 82e]
< 1 µM

Here is the next compound: CC(C)n1nc(C(Oc2ccccc2CC(=O)O)c2ccccc2)c2cc(-c3cccc(CN)c3)ccc21 (stereo not drawn) [Compound 228e]
> 10 µM

Also need CC(Oc1ccccc1CC(=O)O)c1coc2ccc(-c3cccc(CN)c3)cc12 (stereo not drawn) [Compound 119d] , thanks.
< 1 µM

Let us now turn to CCc1ccc(CC(=O)O)c(OCc2coc3ccc(-c4cccc(CN)c4)cc23)c1 [Compound 49b]
< 1 µM

Same thing, different compound: NCc1cccc(-c2ccc3occ(COc4c(CC(=O)O)cccc4C(=O)O)c3c2)c1 [Compound 301d]
< 1 µM

Next compound up: CC(C)CNc1cc(-c2cccc(CN)c2)cc2c(COc3ccccc3CC(=O)O)coc12 [Compound 151d]
< 1 µM

// same read-out, input: CC(C)c1oc2ccc(-c3cccc(CN)c3)cc2c1COc1ccccc1CC(=O)O [Compound 142e]
< 1 µM

For NCc1cccc(-c2cc(COc3ccc(F)cc3)c3occ(COc4ccccc4CC(=O)O)c3c2)c1 [Compound 143f] then?
< 1 µM

Then NCc1cc(-c2cc3c(COc4ccccc4CC(=O)O)coc3c3ccoc23)ccn1 [Compound 288d] ?
< 1 µM

Please answer likewise for NCc1cccc(-c2ccc3occ(COc4cc(OC(F)(F)F)ccc4CC(=O)O)c3c2)c1 [Compound 110d]
< 1 µM

Cool, now NCc1cccc(-c2coc3ccc(COc4ccccc4CC(=O)O)cc23)c1 [Compound 38e]
< 1 µM

Now consider NCc1cc(-c2cc3c(COc4ccccc4CC(=O)O)cccc3o2)ccn1 [Compound 290h] and answer again.
< 1 µM
